These data points were gathered from patent US9290490B2.

# system tested: recombinant human GST-Syk (Homo sapiens (Human))
# experiment description: Homogeneous Time-Resolved Fluorescence (HTRF) Assay for the Recombinant Human Syk Enzyme
# Format: biochemical
# test settings: recombinant human GST-Syk 5 pM, ATP 25 μM, 10-dose titration; read-out: rhSyk
assay endpoint: IC50 (nM)

Cc1cc(Nc2nccc(C)n2)cc(-c2cnc(C(C)(O)C3CCC(NOC(=O)Cc4ccccc4)CC3)s2)c1 (stereo not shown)	123
CCOC(=O)C1CCC(Cc2ncc(-c3cc(C)cc(Nc4nccc(C)n4)c3)s2)CC1 (stereo not shown)	301
CCC(=O)O[C@@H]1CCC(C(C)(O)c2ncc(-c3cc(C)cc(Nc4nccc(C)n4)c3)s2)C[C@H]1C (stereo partly shown)	93

[a] COC(=O)[C@@H]1CC(C(=O)c2ncc(-c3cc(C)cc(Nc4nccc(C(F)(F)F)n4)c3)s2)[C@H](O)C1(C)C (stereo partly shown)
[b] Cc1cc(Nc2nccc(C)n2)cc(-c2cnc(C(C)(O)[C@H]3CC[C@H](C(=O)O)CC3)s2)c1 (single isomer, unassigned)
Hi, I'm comparing a with b and wondering which one has the bigger number for IC50. Any idea? // respond with label for picked entry a

[a] Cc1cc(Nc2nccc(C)n2)cc(-c2cnc(C(C)(O)C3CCC(C(=O)O)CC3)s2)c1 (stereo not shown)
[b] Cc1cc(Nc2nccc(C(F)(F)F)n2)cc(-c2cnc(C(N)[C@H]3CC[C@H](C(=O)O)CC3)s2)c1 (stereo partly shown)
Hello, I am sorting some records. Could you say if a or b has the smaller IC50 value? // respond with label for picked entry b

----------
# system tested: recombinant human GST-Syk (Homo sapiens (Human))
# experiment description: Homogeneous Time-Resolved Fluorescence (HTRF) Assay for the Recombinant Human Syk Enzyme
# Assay type: biochemical
# test settings: recombinant human GST-Syk 5 pM, ATP 25 μM, 10-dose titration; read-out: rhSyk
assay endpoint: IC50 (nM)

Cc1cc(Nc2nccc(C(F)(F)F)n2)cc(-c2cnc(C(F)C3CCC(C(=O)O)CC3)s2)c1 (stereo not drawn) [Example 4-6]	2
Cc1cc(Nc2nccc(C)n2)cc(-c2cnc(C(O)(C3CCC(C(=O)O)CC3)C(F)(F)F)s2)c1 (stereo not drawn) [Example 2-101]	2
Cc1cc(Nc2nccc(C(F)(F)F)n2)cc(-c2cnc(C(C)(O)C3CCC(C(=O)O)C3)s2)c1 (stereo not drawn) [Example 3-2]	2

----------
# system tested: recombinant human GST-Syk (Homo sapiens (Human))
# experiment description: Homogeneous Time-Resolved Fluorescence (HTRF) Assay for the Recombinant Human Syk Enzyme
# Format: biochemical
# test settings: recombinant human GST-Syk 5 pM, ATP 25 μM; read-out: rhSyk Activity (IC50)
assay endpoint: IC50

# annotated cases, reported IC50 shown
Cc1cc(Nc2nccc(C(F)(F)F)n2)cc(-c2cnc(C(C)(O)C3CCC(C(=O)O)C3)s2)c1 (stereo not shown) [Example 3-2]	≤ 100 nM
Cc1cc(Nc2nccc(C)n2)cc(-c2cnc(C(C)(O)[C@H]3CC[C@H](C(=O)O)CC3)s2)c1 (single isomer, unassigned) [Example 2-52]	≤ 100 nM
Cc1cc(Nc2nccc(C(F)(F)F)n2)cc(-c2cnc(C(C)(O)C3CCC(C)(C(=O)O)CC3)s2)c1 (stereo not shown) [Example 3-5]	≤ 100 nM
CCC(=O)O[C@@H]1CCC(C(C)(O)c2ncc(-c3cc(C)cc(Nc4nccc(C)n4)c3)s2)C[C@H]1C (stereo partly shown) [Example 2-16]	≤ 100 nM

Given the compound CCOC(=O)C1CCC(Cc2ncc(-c3cc(C)cc(Nc4nccc(C)n4)c3)s2)CC1 (stereo not shown) [Example 13, step 2] , what is its reported IC50? 100 to 1000 nM

Further, for Cc1cc(Nc2nccc(C(F)(F)F)n2)cc(-c2cnc(C(C)(O)C3CCC(C(=O)O)C3)s2)c1 (stereo not shown) [Example 3-1] ? ≤ 100 nM
